All figures here come from patent US9540391B2.

# target.of.assay: recombinant sEH (Homo sapiens)
# Sequence (P34913 whole entry): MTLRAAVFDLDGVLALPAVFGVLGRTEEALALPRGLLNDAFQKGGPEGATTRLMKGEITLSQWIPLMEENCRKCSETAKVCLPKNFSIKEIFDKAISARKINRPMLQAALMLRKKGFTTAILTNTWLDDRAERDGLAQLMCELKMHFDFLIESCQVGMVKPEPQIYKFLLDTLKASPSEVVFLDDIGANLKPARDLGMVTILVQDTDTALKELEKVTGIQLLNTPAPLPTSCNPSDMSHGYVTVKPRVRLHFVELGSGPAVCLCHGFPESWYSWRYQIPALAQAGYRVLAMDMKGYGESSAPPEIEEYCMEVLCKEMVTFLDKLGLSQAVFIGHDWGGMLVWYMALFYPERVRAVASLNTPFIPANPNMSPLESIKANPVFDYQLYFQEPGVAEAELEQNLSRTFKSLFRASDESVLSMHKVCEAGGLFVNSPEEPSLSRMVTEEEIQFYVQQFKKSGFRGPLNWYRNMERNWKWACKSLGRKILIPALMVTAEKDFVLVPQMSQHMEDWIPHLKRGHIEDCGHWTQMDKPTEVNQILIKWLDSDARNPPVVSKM
# experimental.protocol: biochemical screening assay for inhibition of soluble epoxide hydrolase (fluorometric, Phome substrate)
Where a name gives a salt, the structure may show the parent alone.
Consider the reported IC50 of an entry and match it to a band in label 0 (below 0.04 µM), label 1 (0.04 µM to below 0.1 µM), label 2 (0.1 µM or more)

compound: O=C(NC1CCCCC1)N[C@H]1CO[C@H]2[C@@H]1OC[C@@H]2Sc1nccs1
target.of.assay: recombinant sEH (Homo sapiens)
label: label 0
--
compound: Cc1ncccc1O[C@H]1CO[C@H]2[C@@H]1OC[C@@H]2NC(=O)NC1CCOCC1
target.of.assay: recombinant sEH (Homo sapiens)
label: label 2
--
compound: O=C(Nc1ccc2c(c1)OCCO2)NC1COC2C(C#Cc3ccccc3)COC12 (stereo not shown)
target.of.assay: recombinant sEH (Homo sapiens)
label: label 2
--
compound: Cc1ncccc1OC1COC2C(NC(=O)NCc3ccc(F)cc3)COC12 (stereo not shown)
target.of.assay: recombinant sEH (Homo sapiens)
label: label 1
--
compound: O=C(NC1CCCCC1)N[C@H]1CO[C@H]2[C@@H]1OC[C@@H]2/C=C\c1ccccc1
target.of.assay: recombinant sEH (Homo sapiens)
label: label 0
--
compound: O=C(NC1CCCCC1)N[C@H]1CO[C@H]2[C@@H]1OC[C@@H]2Oc1cccn2ccnc12
target.of.assay: recombinant sEH (Homo sapiens)
label: label 0
--
compound: Cc1ncccc1O[C@H]1CO[C@H]2[C@@H]1OC[C@@H]2NC(=O)NC(C)c1ccc(F)cc1 (stereo partly shown)
target.of.assay: recombinant sEH (Homo sapiens)
label: label 0
--
compound: Cc1ncccc1O[C@H]1CO[C@H]2[C@@H]1OC[C@@H]2NC(=O)NC1CCCNC1 (stereo partly shown) [Example 82, hydrochloride]
target.of.assay: recombinant sEH (Homo sapiens)
label: label 2
--
compound: O=C(Nc1ccc(C(F)(F)F)cc1)NC1COC2C(C#Cc3ccsc3)COC12 (stereo not shown)
target.of.assay: recombinant sEH (Homo sapiens)
label: label 1
--
compound: Cc1cc(O[C@H]2CO[C@H]3[C@@H]2OC[C@@H]3NC(=O)NC2CCCCC2)cnc1Cl
target.of.assay: recombinant sEH (Homo sapiens)
label: label 0
--
compound: O=C(NC1CCCCC1)N[C@H]1CO[C@H]2[C@@H]1OC[C@@H]2Sc1ccncn1 [Example 49, hydrochloride]
target.of.assay: recombinant sEH (Homo sapiens)
label: label 0
--
compound: Cc1ncccc1O[C@H]1CO[C@H]2[C@@H]1OC[C@@H]2NC(=O)NC1(c2cccnc2)CC1
target.of.assay: recombinant sEH (Homo sapiens)
label: label 2
--
compound: Cc1cc(C)cc(NC(=O)N[C@H]2CO[C@H]3[C@@H]2OC[C@@H]3C#Cc2ccsc2)c1
target.of.assay: recombinant sEH (Homo sapiens)
label: label 1
--
compound: CCCCOc1ccc(NC(=O)NC2COC3C(C#N)COC23)cc1 (stereo not shown)
target.of.assay: recombinant sEH (Homo sapiens)
label: label 2
--
compound: O=C(NC1CCCCC1)N[C@H]1CO[C@@H]2[C@@H](CCc3ccc4c(c3)OCO4)CO[C@@H]21
target.of.assay: recombinant sEH (Homo sapiens)
label: label 2

---

Items are presented alongside their recorded pIC50.
# target.of.assay: recombinant sEH (Homo sapiens)
# experimental.protocol: biochemical screening assay for inhibition of soluble epoxide hydrolase (fluorometric, Phome substrate)
pIC50: −log10 of the molar value. Counter-ions that a name gives are not always drawn.

molecule: Cc1ncccc1OC1COC2C(NC(=O)NCC3CCCCC3(C)O)COC12 (stereo not shown)
readout.qualifier: =
pIC50: 7.43
--
molecule: O=C(Nc1ccccc1)NC1COC2C(CCc3ccsc3)COC12 (stereo not shown)
readout.qualifier: =
pIC50: 7.60
--
molecule: O=C(NC1CCCCC1)N[C@H]1CO[C@H]2[C@@H]1OC[C@@H]2Oc1ccc(F)c(Br)c1
readout.qualifier: =
pIC50: 8.70
--
molecule: Cc1ncccc1O[C@H]1CO[C@H]2[C@@H]1OC[C@@H]2NC(=O)NC1CCCN(C(=O)C(C)(C)C)C1 (stereo partly shown)
readout.qualifier: =
pIC50: 7.28
--
molecule: O=C(Nc1ccccc1)N[C@H]1CO[C@H]2[C@@H]1OC[C@@H]2/C=C\c1ccsc1
readout.qualifier: =
pIC50: 6.37
--
molecule: O=C(NC1CCCCC1)N[C@H]1CO[C@H]2[C@@H]1OC[C@@H]2Oc1cccc(N2CCNCC2)c1 [Example 142, trifluoroacetate]
readout.qualifier: =
pIC50: 7.52
--
molecule: COC1COCCC1NC(=O)N[C@H]1CO[C@H]2[C@@H]1OC[C@@H]2Oc1cccnc1C (stereo partly shown) [Example 78, hydrochloride]
readout.qualifier: =
pIC50: 5.88
--
molecule: Cc1ccc(S[C@H]2CO[C@H]3[C@@H]2OC[C@@H]3NC(=O)NC2CCCCC2)nn1
readout.qualifier: =
pIC50: 8.52
--
molecule: O=C(NC1CCCCC1)N[C@H]1CO[C@H]2[C@@H]1OC[C@@H]2Oc1c[nH]c2ccccc12
readout.qualifier: =
pIC50: 8.52
--
molecule: CO[C@H]1COCC[C@H]1NC(=O)N[C@H]1CO[C@H]2[C@@H]1OC[C@@H]2Oc1cccnc1C
readout.qualifier: =
pIC50: 7.49
--
molecule: O=C(NC1CCCCC1)N[C@H]1CO[C@H]2[C@@H]1OC[C@@H]2Oc1cccnc1 [Example 96, trifluoroacetate]
readout.qualifier: =
pIC50: 8.40
--
molecule: NC[C@H]1CO[C@H]2[C@@H]1OC[C@@H]2NC(=O)NC1CCCCC1 [Example 8, trifluoroacetate]
readout.qualifier: =
pIC50: 4.84
--
molecule: Cc1ncccc1O[C@H]1CO[C@H]2[C@@H]1OC[C@@H]2NC(=O)NC1CCCCC1(C)C (stereo partly shown)
readout.qualifier: =
pIC50: 7.80
--
molecule: O=C(NC1CCCCC1)N[C@H]1CO[C@H]2[C@@H]1OC[C@@H]2Sc1ncccn1
readout.qualifier: =
pIC50: 7.30
--
molecule: O=C(Nc1ccc(OC(F)(F)F)cc1)N[C@H]1CO[C@H]2[C@@H]1OC[C@@H]2C#Cc1ccccc1
readout.qualifier: =
pIC50: 7.60
--
molecule: O=C(NC1CCCCC1)N[C@H]1CO[C@H]2[C@@H]1OC[C@@H]2Oc1ccccc1
readout.qualifier: =
pIC50: 8.52
--
molecule: O=C(Nc1ccccc1)NC1COC2C(C#Cc3ccsc3)COC12 (stereo not shown)
readout.qualifier: =
pIC50: 6.62
--
molecule: COC(=O)c1ccc(O[C@H]2CO[C@H]3[C@@H]2OC[C@@H]3NC(=O)NC2CCCCC2)cc1
readout.qualifier: =
pIC50: 8.52
--
molecule: Cc1ncccc1OC1COC2C(NC(=O)NC3CC4CCC3(C)C4(C)C)COC12 (stereo not shown) [Example 173]
readout.qualifier: =
pIC50: 8.30
--
molecule: CCN(CC)c1ccc(O[C@H]2CO[C@H]3[C@@H]2OC[C@@H]3NC(=O)NC2CCCCC2)cn1
readout.qualifier: >
pIC50: 9.00
--
molecule: O=C(Nc1ccc(OC(F)(F)F)cc1)N[C@H]1CO[C@H]2[C@@H]1OC[C@@H]2C#Cc1ccsc1
readout.qualifier: =
pIC50: 7.82
--
molecule: Cc1cccc(CNC(=O)NC2COC3C(C#Cc4ccccc4)COC23)c1 (stereo not shown)
readout.qualifier: =
pIC50: 7.43
--
molecule: Cc1cc(C)cc(NC(=O)N[C@H]2CO[C@H]3[C@H](CCc4ccccc4)CO[C@@H]32)c1
readout.qualifier: =
pIC50: 7.77
--
molecule: O=C(Nc1ccccc1)NC1COC2C(C=Cc3ccccc3)COC12 (stereo not shown)
readout.qualifier: =
pIC50: 6.72
--
molecule: Cc1ncccc1O[C@H]1CO[C@H]2[C@@H]1OC[C@@H]2NC(=O)NC(C)(C)Cc1ccc(F)cc1
readout.qualifier: =
pIC50: 7.54
--
molecule: O=C(Nc1ccc(OCc2ccccc2)cc1)NC1COC2C(C#Cc3ccccc3)COC12 (stereo not shown)
readout.qualifier: =
pIC50: 7.09
--
molecule: O=C(NC1CCCCC1)N[C@H]1CO[C@H]2[C@@H]1OC[C@@H]2Sc1ncc(Cl)cn1
readout.qualifier: =
pIC50: 9.00
--
molecule: Cc1ncccc1O[C@H]1CO[C@H]2[C@@H]1OC[C@@H]2NC(=O)NCCCn1nc(C(F)(F)F)cc1C
readout.qualifier: =
pIC50: 7.39
--
molecule: Cc1ncccc1OC1COC2C(NC(=O)NC3CC4CCC3(C)C4(C)C)COC12 (stereo not shown) [Example 231]
readout.qualifier: =
pIC50: 8.00
--
molecule: Cc1ncccc1O[C@H]1CO[C@H]2[C@@H]1OC[C@@H]2NC(=O)NCc1cccc2c1OC(C)(C)C2
readout.qualifier: =
pIC50: 7.41
--
molecule: Cc1ncccc1O[C@H]1CO[C@H]2[C@@H]1OC[C@@H]2NC(=O)NC(C)c1ccc(S(C)(=O)=O)cc1 (stereo partly shown)
readout.qualifier: =
pIC50: 7.36
